- STATED CONDITIONS: in acetonitrile, 293.2 K
READOUT LABEL: solubility (mole fraction)
Quick one: just the number, no unit, thanks!

Which solubility (mole fraction) is listed for COC(=O)[C@@H](N)Cc1c[nH]c2ccccc12.Cl ? 5.24e-05

====

- STATED CONDITIONS: in 2-butanone, 283.2 K
READOUT LABEL: solubility (mole fraction)
Quick one: just the number, no unit, thanks!

Which solubility (mole fraction) is listed for COC(=O)[C@@H](N)Cc1c[nH]c2ccccc12.Cl ? 0.000254

====

- STATED CONDITIONS: in acetonitrile, 313.2 K
READOUT LABEL: solubility (mole fraction)
Quick one: just the number, no unit, thanks!

Which solubility (mole fraction) is listed for COC(=O)[C@@H](N)Cc1c[nH]c2ccccc12.Cl ? 0.000123

Data provenance: BigSolDB 2.1
